Cited source: patent US20120045393A1

test system: LHRH binding sites on human ovarian cancer cells (EFO-27);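 also: Cell-associated radioactivity on confluent EFO-27 monolayers in 96-well plates, measured by microplate scintillation counting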
Non-standard residues stand in square brackets, D forms with d. Residues, ends and D or L forms follow the SMILES beside them. *: point of attachment. DOTA = O=C(O)CN1CCN(CC(=O)O)CCN(CC(=O)*)CCN(CC(=O)O)CC1; Bpa = N[C@@H](Cc1ccc(C(=O)c2ccccc2)cc1)C(=O)O; d2Nal = N[C@H](Cc1ccc2ccccc2c1)C(=O)O; azaGly = NNC(=O)O
REPORTED_ENDPOINT: EC50 (nM)
Give bare numbers, in nM.

# count of solved cases: 2
- COMPOUND: "CNCC(=O)N[C@@H](CCCNC(=N)N)C(=O)N[C@@H](Cc1c[nH]c2ccccc12)C(=O)N[C@@H](CO)C(=O)N[C@@H](Cc1c[nH]cn1)C(=O)N[C@H](CCCNC(=N)N)C(=O)N[C@@H](Cc1c[nH]c2ccccc12)C(=O)N[C@@H](Cc1ccc(C(=O)c2ccccc2)cc1)C(=O)N1CCC[C@H]1C(=O)NCCCN1CCN(CCCNC(=O)CN2CCN(CC(=O)O)CCN(CC(=O)O)CCN(CC(=O)O)CC2)CC1 [compound 3044]"
  TARGET: "LHRH binding sites on human ovarian cancer cells (EFO-27)"
  DISPLAY_UNIT: "nM"
  EC50: 240
- COMPOUND: "CC(C)C[C@H](NC(=O)[C@H](Cc1c[nH]c2ccccc12)NC(=O)[C@H](CCCNC(=N)N)NC(=O)[C@@H](Cc1ccc2ccccc2c1)NC(=O)CN1CCN(CC(=O)O)CCN(CC(=O)O)CCN(CC(=O)O)CC1)C(=O)N[C@@H](Cc1c[nH]cn1)C(=O)N[C@H](CCCNC(=N)N)C(=O)N[C@@H](Cc1c[nH]c2ccccc12)C(=O)N[C@@H](Cc1ccc(C(=O)c2ccccc2)cc1)C(=O)N1CCC[C@H]1C(=O)NNC(N)=O [compound 3113] ({DOTA}-[d2Nal]RWLH[dR]W[Bpa]P[azaGly]-NH2)"
  TARGET: "LHRH binding sites on human ovarian cancer cells (EFO-27)"
  DISPLAY_UNIT: "nM"
  EC50: 1130

Please turn your attention to the following entry.
The compound CC(C)C[C@H](NC(=O)[C@H](CCCNC(=N)N)NC(=O)[C@@H](Cc1ccc2ccccc2c1)NC(=O)CN1CCN(CC(=O)O)CCN(CC(=O)O)CCN(CC(=O)O)CC1)C(=O)N[C@@H](CO)C(=O)N[C@@H](Cc1c[nH]cn1)C(=O)N[C@H](CCCNC(=N)N)C(=O)N[C@@H](Cc1c[nH]c2ccccc12)C(=O)N[C@@H](Cc1ccc(C(=O)c2ccccc2)cc1)C(=O)N1CCC[C@H]1C(=O)NNC(N)=O [compound 3108] ({DOTA}-[d2Nal]RLSH[dR]W[Bpa]P[azaGly]-NH2) showed EC50 equal to 560
